Answer each item with its documented Neuritic length/TH+ neuron, % relative to control ± SEM.
- Tested on: dopaminergic neurons (TH+ neurons) in primary cultures of ventral mesencephalon
- assay_overview: Neuritogenesis: total neuritic length per dopaminergic neuron in primary cultures of ventral mesencephalon
- Format: cell-based
- measurement_context: Product 10 nM, 8 days culture, rat embryo ventral mesencephalon; untreated control = 100
Give bare numbers, in %.

Can you give me Neuritic length/TH+ neuron, % relative to control ± SEM for all of these, one by one?
1. CCCCCCCCCCCCCCCCCCCC(=O)NCCc1c[nH]c2ccccc12 [Compound 1f, N-(2-(1H-indol-3-yl)ethyl)icosanamide]
2. CCCCCCCCCCCCCCCCCCNCCc1c[nH]c2ccccc12 [Compound 2e]
3. OCCCCCCCCCCCCCCCNCCc1c[nH]c2ccccc12 [Compound 2i]
4. CCCCCCCCCCCCCCCCCCCCCCCNCCc1c[nH]c2ccccc12 [Compound 2g]
5. CCCCCCCCCCCCCCCC(=O)NCCc1c[nH]c2ccccc12 [Compound 1c, N-(2-(1H-indol-3-yl)ethyl)hexadecanamide]
6. CCCC(=O)Nc1ncnc2c1ncn2[C@@H]1O[C@@H]2COP(=O)(O)O[C@H]2[C@H]1OC(=O)CCC [db-AMPc, dibutyryl-AMP cyclic, reference compound]
7. CCCCCCCCCCCCCCCCCCCCNCCc1c[nH]c2ccccc12 [Compound 2f]
8. CCCCCCCCCCCCCCCCNCCc1c[nH]c2ccccc12 [Compound 2c]

Result:
1. 147.4
2. 157.3
3. 160.8
4. 141.2
5. 168.6
6. 333.1
7. 132.6
8. 197.0
